// reported pKi for each item listed
systemTested: T1, human plasma kallikrein (PKal) (human, UniProt P03952 20-638)
T1 construct: Active PKal is cleaved at the marked R/I site into two disulfide-linked chains; also called human Pkal; active PKal
T1 sequence (P03952 20-638 limits assumed): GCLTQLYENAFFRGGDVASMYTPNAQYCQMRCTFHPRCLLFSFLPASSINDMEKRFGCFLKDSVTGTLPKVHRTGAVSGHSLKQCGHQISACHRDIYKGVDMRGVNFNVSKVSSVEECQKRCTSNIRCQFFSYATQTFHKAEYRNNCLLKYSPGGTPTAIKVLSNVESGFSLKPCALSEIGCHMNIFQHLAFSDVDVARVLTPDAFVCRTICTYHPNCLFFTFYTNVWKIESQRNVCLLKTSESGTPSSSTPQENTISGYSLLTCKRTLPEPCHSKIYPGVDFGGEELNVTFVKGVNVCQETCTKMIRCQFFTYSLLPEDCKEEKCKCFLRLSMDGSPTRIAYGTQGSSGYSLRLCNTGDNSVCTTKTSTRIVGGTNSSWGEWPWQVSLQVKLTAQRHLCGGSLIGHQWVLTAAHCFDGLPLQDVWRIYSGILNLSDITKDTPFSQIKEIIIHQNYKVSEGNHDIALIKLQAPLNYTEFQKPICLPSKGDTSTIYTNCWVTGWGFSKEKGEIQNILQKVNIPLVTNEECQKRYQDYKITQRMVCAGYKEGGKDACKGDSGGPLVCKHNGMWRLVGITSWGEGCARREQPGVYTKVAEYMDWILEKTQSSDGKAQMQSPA
experimentalDetails: Ki,app; Fab inhibition of PKal cleavage of a substrate peptide, Morrison fit
Note: pKi values are expressed as the negative base-10 logarithm of concentration in M.

[
  {
    "binder": "M0202-A01 (Fab, V domains shown, HC CDR3 variant of M0162-A04, tested as Fab) VH: EVQLLESGGGLVQPGGSLRLSCAASGFTFSHYIMMWVRQAPGKGLEWVSGIYSSGGITVYADSVKGRFTISRDNSKNTLYLQMNSLRAEDTAVYYCAYRRIGVPRRDAFDIWGQGTMVTVSS VL: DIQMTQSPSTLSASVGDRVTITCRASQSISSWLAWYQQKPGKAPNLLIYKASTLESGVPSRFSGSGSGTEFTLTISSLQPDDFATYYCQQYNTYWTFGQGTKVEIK",
    "readoutType": "pKi",
    "value": 9.52
  }
]

Turning to the following binder.
query: Return pKi (reported value) for this binder: M0200-H07 (Fab, V domains shown, HC CDR3 variant of M0162-A04, tested as Fab) VH: EVQLLESGGGLVQPGGSLRLSCAASGFTFSHYIMMWVRQAPGKGLEWVSGIYSSGGITVYADSVKGRFTISRDNSKNTLYLQMNSLRAEDTAVYYCAYRRTGVPRRNAFDNWGQGTMVTVSS VL: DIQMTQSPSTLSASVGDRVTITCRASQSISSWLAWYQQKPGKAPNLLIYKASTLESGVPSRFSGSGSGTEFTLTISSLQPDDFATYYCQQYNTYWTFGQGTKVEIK
result: 9.40
